measured.target: Hexokinase HKDC1 (Homo sapiens) (UniProt Q2TB90)
Sequence (Q2TB90 whole entry, looked up): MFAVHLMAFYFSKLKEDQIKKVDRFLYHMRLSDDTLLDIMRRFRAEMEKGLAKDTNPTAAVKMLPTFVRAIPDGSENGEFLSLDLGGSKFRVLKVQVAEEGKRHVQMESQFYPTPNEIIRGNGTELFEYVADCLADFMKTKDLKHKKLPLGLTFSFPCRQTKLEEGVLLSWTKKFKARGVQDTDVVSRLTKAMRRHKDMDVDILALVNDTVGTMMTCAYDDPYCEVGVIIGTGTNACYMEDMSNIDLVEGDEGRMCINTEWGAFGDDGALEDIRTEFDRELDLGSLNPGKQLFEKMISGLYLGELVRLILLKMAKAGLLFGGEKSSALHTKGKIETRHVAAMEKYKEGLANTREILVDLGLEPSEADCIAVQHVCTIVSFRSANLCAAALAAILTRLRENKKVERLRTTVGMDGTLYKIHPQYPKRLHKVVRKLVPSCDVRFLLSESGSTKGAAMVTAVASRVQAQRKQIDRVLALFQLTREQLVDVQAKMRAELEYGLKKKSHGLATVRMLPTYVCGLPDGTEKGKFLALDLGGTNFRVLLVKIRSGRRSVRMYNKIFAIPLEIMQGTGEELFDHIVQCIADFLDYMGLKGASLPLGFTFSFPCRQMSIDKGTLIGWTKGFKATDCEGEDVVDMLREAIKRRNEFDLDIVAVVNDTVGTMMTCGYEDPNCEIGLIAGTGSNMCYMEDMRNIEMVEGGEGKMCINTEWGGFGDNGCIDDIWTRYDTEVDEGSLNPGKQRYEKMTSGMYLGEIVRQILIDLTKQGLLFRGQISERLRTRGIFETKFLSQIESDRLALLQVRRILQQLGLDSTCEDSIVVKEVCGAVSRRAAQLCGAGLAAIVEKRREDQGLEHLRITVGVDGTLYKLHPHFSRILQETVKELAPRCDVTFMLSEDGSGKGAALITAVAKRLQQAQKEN
experimental.protocol: HKDC1 hexokinase inhibitors, confirmation, biochemical, single concentration (AID 504710)
condition: recombinant HKDC1, G6PDH/diaphorase/resazurin fluorescence; at 20 µM; hits give high values
# key: entry, value: inhibition
Just the number in %, nothing appended.

Recorded results for 2 molecules are shown here.
# molecule, measured.target, unit.of.measure, inhibition
data = [
    ("O=C1C(N2CCOCC2)=C(n2nnc3ccccc32)C(=O)c2ccccc21", "Hexokinase HKDC1 (Homo sapiens) (UniProt Q2TB90)", "%", 54.8),
    ("CCN(CC)C(=O)c1ccc(C(=O)c2c(C)cc(C)cc2C)cc1", "Hexokinase HKDC1 (Homo sapiens) (UniProt Q2TB90)", "%", -40.1),
]

Req: Quick check: inhibition on Hexokinase HKDC1 (Homo sapiens) (UniProt Q2TB90), item `N#C/C(=C(/O)CCl)c1nc2c(s1)CCc1ccccc1-2` ?
Resp: 46.1

Req: Lookup CCCCC(CC)CN=C(N)NC(N)=NCCCCCCN=C(N)NC(N)=NCC(CC)CCCC (stereo unspecified)
Resp: 45.9

Req: Lookup CC(NNC(=S)N1CCN(c2ccccn2)CC1)c1nccc2ccccc12 (stereo unspecified)
Resp: -74.7

Req: Lookup `O=C(O)c1ccc(S(=O)(=O)/N=C2\C=C(Nc3ccccc3F)C(=O)c3ccccc32)cc1`
Resp: 75.7

Req: Lookup `O=C(NC1=CC(=O)c2ccccc2C1=O)c1ccccc1`
Resp: 69.9

Req: Lookup `COP(=O)(OC)c1ccc(NCc2cc(O)ccc2O)cc1`
Resp: 53.1

Req: Lookup `N#Cc1c(SCC(=O)Nc2nc3ccc(Br)cc3s2)sc2c(O)cc(=O)[nH]c12`
Resp: 44.9

Req: Lookup `Cc1oc2c(c1C(=O)c1ccccc1)C(=O)C(=O)c1ccccc1-2`
Resp: 51.8

Req: Lookup `O=C(O)[C@@H](c1ccccc1)N1Cc2ccccc2C1=O`
Resp: 43.8

Req: Lookup `Cn1c2ccccc2c(=O)c2c(=O)n(-c3ccc(F)cc3)c(-c3cccs3)nc21`
Resp: 66

----------
measured.target: Hexokinase HKDC1 (Homo sapiens)
experimental.protocol: HKDC1 hexokinase inhibitors, confirmation, biochemical, single concentration (AID 504710)
condition: recombinant HKDC1, G6PDH/diaphorase/resazurin fluorescence; at 20 µM
The source made the active and inactive calls.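 How the source made its calls: active means inhibition reaching about 16% in any single replicate (limit read from the data); inactive means the rest.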
Can you answer with just one of these options? true (1) = active, false (0) = inactive

Req: Status in this test for `Cc1ccc2oc(=O)c3cnn(CC(=O)N4CCc5ccccc5C4)c3c2c1` ?
Resp: false (0)

Req: Lookup `O=C(O)CSc1cc(NS(=O)(=O)c2ccc(Cl)cc2)c2ccccc2c1O`
Resp: true (1)

Req: Lookup `O=C(/C=C/c1cccs1)Nc1scc(-c2ccccc2)c1C(=O)O`
Resp: true (1)

----------
measured.target: Hexokinase HKDC1 (Homo sapiens)
experimental.protocol: HKDC1 hexokinase inhibitors, confirmation, biochemical, single concentration (AID 504710)
condition: recombinant HKDC1, G6PDH/diaphorase/resazurin fluorescence; at 20 µM; hits give high values
# key: entry, value: inhibition
Just the number in %, nothing appended.

Recorded results for 6 compounds are shown here.
# compound, measured.target, measured.metric, value.observed
rows = [
    ("CC(OC(=O)c1cc(O)c2ccccc2c1O)C(=O)Nc1ccc(C(N)=O)cc1 (centres undefined)", "Hexokinase HKDC1 (Homo sapiens)", "inhibition", 28.4),
    ("Cc1nc2c(c(=O)c3ccccc3n2C)c(=O)n1-c1ccc(F)cc1", "Hexokinase HKDC1 (Homo sapiens)", "inhibition", 52.9),
    ("COc1ccc(S(=O)(=O)Nc2cc(SCC(=O)O)c(O)c3ccccc23)cc1", "Hexokinase HKDC1 (Homo sapiens)", "inhibition", 47.2),
    ("CC(=NNc1nc2ccccc2o1)c1cc2ccccc2cn1", "Hexokinase HKDC1 (Homo sapiens)", "inhibition", -77.2),
    ("Cc1ccc(SC2=C(Sc3ccc(C)cc3)C(=O)c3ccccc3C2=O)cc1", "Hexokinase HKDC1 (Homo sapiens)", "inhibition", 69),
    ("Cc1ccc(S(=O)(=O)/N=C2\\C=C(Nc3cccc(C(=O)O)c3)C(=O)c3ccccc32)cc1", "Hexokinase HKDC1 (Homo sapiens)", "inhibition", 79.9),
]

Req: Look up inhibition for this compound: `O=C(O)c1ccc(N=Cc2c(O)ccc3ccccc23)cc1`
Resp: 43

Req: Lookup `COc1ccc2[nH]c3c4c(ccc3c2c1)C(=O)C=CC4=O`
Resp: 32.9

Req: Lookup `COc1ccc(/C=C/C(=O)NC(=S)NNC(=O)c2cnccn2)cc1`
Resp: -58.3
